Could you please report measured inhibition for the items listed next?
- assay.info: growth inhibition of BT084 medulloblastoma cells, cell-based, ICGC_MB145, cisplatin and BGB IC40 combos (AID 1671461);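 further: cells exposed to drugs for 96 hours; 0% = vehicle DMSO and 100% = high DMSO full killing control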
- experimental.parameters: drug combinations, cisplatin combination, at 5 µM, stronger effect = higher value
Response body: numeric value in %, unit text excluded.

Name the reported inhibition value associated with the compound "COc1c2ccoc2cc2oc(=O)ccc12" -48

Name the reported inhibition value associated with the compound CC1(C(=O)O)CCC2(C)CCC3(C)C(=CC(=O)C4C5(C)CCC(OC(=O)CCC(=O)O)C(C)(C)C5CCC43C)C2C1 (centres undefined) -38.2

Name the reported inhibition value associated with the compound "N=C(N=C(N)N)N1CCOCC1" 7.43

Name the reported inhibition value associated with the compound "CN1C[C@@H]2C[C@H]1CN2c1cc2c(cc1F)c(=O)c(C(=O)O)cn2C1CC1" -13.9

Name the reported inhibition value associated with the compound "Nc1ccc2cc3ccc(N)cc3nc2c1" 80.4

Name the reported inhibition value associated with the compound "CCn1nc(C(=O)O)c(=O)c2cc3c(cc21)OCO3" -34.6

Name the reported inhibition value associated with the compound "O=c1[nH]c(=O)n([C@H]2C[C@H](O)[C@@H](CO)O2)cc1Br" -1.86

Name the reported inhibition value associated with the compound "N=c1ccn2c(n1)O[C@H]1[C@H](O)[C@@H](CO)O[C@H]12" 58.5

Name the reported inhibition value associated with the compound "Cc1ccc2nc(N)[nH]c(=O)c2c1Sc1ccncc1" -137
